All values here come from the supplement of paper PMC6555819.

# Test system: PXR:RXRa (NR concentration 270 nM, RXRa partner concentration 90 nM)
# experimentalProtocol: PBM binding z-score (relative to random genomic background probes); higher = stronger binding; sequences stand for … in GC…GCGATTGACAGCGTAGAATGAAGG

[
  {
    "sequenceChain": "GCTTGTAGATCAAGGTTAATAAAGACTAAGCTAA",
    "testedSystem": "PXR:RXRa (NR concentration 270 nM, RXRa partner concentration 90 nM)",
    "PBM binding z-score": 0.16
  },
  {
    "sequenceChain": "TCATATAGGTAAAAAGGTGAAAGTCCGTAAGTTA",
    "testedSystem": "PXR:RXRa (NR concentration 270 nM, RXRa partner concentration 90 nM)",
    "PBM binding z-score": 1.4
  },
  {
    "sequenceChain": "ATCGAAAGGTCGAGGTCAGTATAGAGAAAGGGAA",
    "testedSystem": "PXR:RXRa (NR concentration 270 nM, RXRa partner concentration 90 nM)",
    "PBM binding z-score": 4.33
  },
  {
    "sequenceChain": "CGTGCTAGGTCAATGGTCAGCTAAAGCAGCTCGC",
    "testedSystem": "PXR:RXRa (NR concentration 270 nM, RXRa partner concentration 90 nM)",
    "PBM binding z-score": 0.869
  },
  {
    "sequenceChain": "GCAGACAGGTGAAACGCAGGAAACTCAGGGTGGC",
    "testedSystem": "PXR:RXRa (NR concentration 270 nM, RXRa partner concentration 90 nM)",
    "PBM binding z-score": -0.387
  },
  {
    "sequenceChain": "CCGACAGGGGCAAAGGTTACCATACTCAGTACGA",
    "testedSystem": "PXR:RXRa (NR concentration 270 nM, RXRa partner concentration 90 nM)",
    "PBM binding z-score": 3.35
  },
  {
    "sequenceChain": "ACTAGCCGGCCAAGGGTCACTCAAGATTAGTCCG",
    "testedSystem": "PXR:RXRa (NR concentration 270 nM, RXRa partner concentration 90 nM)",
    "PBM binding z-score": 3
  },
  {
    "sequenceChain": "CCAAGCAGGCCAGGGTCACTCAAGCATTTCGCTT",
    "testedSystem": "PXR:RXRa (NR concentration 270 nM, RXRa partner concentration 90 nM)",
    "PBM binding z-score": 2.65
  }
]

###

# System: FXR:RXRa (NR concentration 270 nM, RXRa partner concentration 90 nM)
# experimentalProtocol: PBM binding z-score (relative to random genomic background probes); higher = stronger binding; sequences stand for … in GC…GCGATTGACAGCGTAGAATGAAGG
endpointLabel: PBM binding z-score

[
  {
    "sequenceChain": "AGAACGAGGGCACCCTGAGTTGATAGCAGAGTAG",
    "readoutValue": 0.236
  },
  {
    "sequenceChain": "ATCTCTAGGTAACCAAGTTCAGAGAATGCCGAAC",
    "readoutValue": 0.204
  },
  {
    "sequenceChain": "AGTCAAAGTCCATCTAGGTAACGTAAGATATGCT",
    "readoutValue": 0.0265
  },
  {
    "sequenceChain": "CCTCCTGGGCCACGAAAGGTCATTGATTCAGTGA",
    "readoutValue": 3.25
  },
  {
    "sequenceChain": "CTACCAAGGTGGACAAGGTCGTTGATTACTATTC",
    "readoutValue": 0.175
  },
  {
    "sequenceChain": "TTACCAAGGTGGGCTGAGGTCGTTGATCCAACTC",
    "readoutValue": 1.56
  },
  {
    "sequenceChain": "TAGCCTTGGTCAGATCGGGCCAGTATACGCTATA",
    "readoutValue": -0.504
  }
]

###

# System: PPARg:RXRa (NR concentration 180 nM, RXRa partner concentration 90 nM)
# experimentalProtocol: PBM binding z-score (relative to random genomic background probes); higher = stronger binding; sequences stand for … in GC…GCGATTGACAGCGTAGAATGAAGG
# binarize PBM binding z-score: threshold 1 inclusive, high side 1 (yes), low side 0 (no)

[
  {
    "sequenceChain": "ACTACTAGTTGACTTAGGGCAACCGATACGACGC",
    "classLabel": "1 (yes)"
  },
  {
    "sequenceChain": "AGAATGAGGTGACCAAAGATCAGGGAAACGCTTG",
    "classLabel": "1 (yes)"
  },
  {
    "sequenceChain": "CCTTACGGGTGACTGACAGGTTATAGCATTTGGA",
    "classLabel": "0 (no)"
  },
  {
    "sequenceChain": "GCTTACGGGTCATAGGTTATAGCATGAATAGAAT",
    "classLabel": "1 (yes)"
  },
  {
    "sequenceChain": "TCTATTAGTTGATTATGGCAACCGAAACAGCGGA",
    "classLabel": "0 (no)"
  },
  {
    "sequenceChain": "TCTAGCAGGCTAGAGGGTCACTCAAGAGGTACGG",
    "classLabel": "1 (yes)"
  },
  {
    "sequenceChain": "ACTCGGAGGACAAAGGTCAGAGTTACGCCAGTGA",
    "classLabel": "1 (yes)"
  },
  {
    "sequenceChain": "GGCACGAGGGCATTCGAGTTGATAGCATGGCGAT",
    "classLabel": "0 (no)"
  },
  {
    "sequenceChain": "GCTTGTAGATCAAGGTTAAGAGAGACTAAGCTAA",
    "classLabel": "0 (no)"
  },
  {
    "sequenceChain": "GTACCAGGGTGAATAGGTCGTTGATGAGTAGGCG",
    "classLabel": "1 (yes)"
  },
  {
    "sequenceChain": "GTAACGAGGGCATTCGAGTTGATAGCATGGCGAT",
    "classLabel": "1 (yes)"
  },
  {
    "sequenceChain": "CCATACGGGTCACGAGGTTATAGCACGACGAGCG",
    "classLabel": "1 (yes)"
  },
  {
    "sequenceChain": "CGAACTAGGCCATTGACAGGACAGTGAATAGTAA",
    "classLabel": "1 (yes)"
  },
  {
    "sequenceChain": "ACAGACAGGTGAGTGGAGGTAACTCAGCTGGACG",
    "classLabel": "0 (no)"
  },
  {
    "sequenceChain": "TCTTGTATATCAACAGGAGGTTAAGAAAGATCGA",
    "classLabel": "0 (no)"
  },
  {
    "sequenceChain": "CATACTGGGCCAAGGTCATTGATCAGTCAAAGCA",
    "classLabel": "1 (yes)"
  },
  {
    "sequenceChain": "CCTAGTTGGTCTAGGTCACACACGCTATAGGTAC",
    "classLabel": "1 (yes)"
  },
  {
    "sequenceChain": "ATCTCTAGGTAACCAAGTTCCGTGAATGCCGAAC",
    "classLabel": "0 (no)"
  },
  {
    "sequenceChain": "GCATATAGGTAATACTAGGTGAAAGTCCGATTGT",
    "classLabel": "1 (yes)"
  }
]

###

# Tested on: LXRa homodimer (NR concentration 270 nM)
# experimentalProtocol: PBM binding z-score (relative to random genomic background probes); higher = stronger binding; sequences stand for … in GC…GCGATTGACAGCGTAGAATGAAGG
Binary classification by PBM binding z-score, with -0.2 as an inclusive lower bound for Satisfied; all other cases are Not satisfied.

[
  {
    "sequenceChain": "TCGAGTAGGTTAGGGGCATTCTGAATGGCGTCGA",
    "classLabel": "Not satisfied"
  },
  {
    "sequenceChain": "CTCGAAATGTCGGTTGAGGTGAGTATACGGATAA",
    "classLabel": "Not satisfied"
  },
  {
    "sequenceChain": "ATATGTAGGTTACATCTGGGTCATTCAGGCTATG",
    "classLabel": "Satisfied"
  },
  {
    "sequenceChain": "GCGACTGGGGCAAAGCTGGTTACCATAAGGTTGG",
    "classLabel": "Not satisfied"
  },
  {
    "sequenceChain": "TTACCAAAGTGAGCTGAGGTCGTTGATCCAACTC",
    "classLabel": "Not satisfied"
  },
  {
    "sequenceChain": "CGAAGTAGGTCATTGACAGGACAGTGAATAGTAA",
    "classLabel": "Satisfied"
  },
  {
    "sequenceChain": "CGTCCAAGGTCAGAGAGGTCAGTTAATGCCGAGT",
    "classLabel": "Satisfied"
  },
  {
    "sequenceChain": "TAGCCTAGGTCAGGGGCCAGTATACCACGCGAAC",
    "classLabel": "Not satisfied"
  },
  {
    "sequenceChain": "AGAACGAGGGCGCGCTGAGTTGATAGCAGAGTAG",
    "classLabel": "Not satisfied"
  },
  {
    "sequenceChain": "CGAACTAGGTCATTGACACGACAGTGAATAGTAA",
    "classLabel": "Satisfied"
  },
  {
    "sequenceChain": "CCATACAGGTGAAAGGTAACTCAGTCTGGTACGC",
    "classLabel": "Satisfied"
  },
  {
    "sequenceChain": "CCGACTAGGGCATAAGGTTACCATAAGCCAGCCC",
    "classLabel": "Satisfied"
  },
  {
    "sequenceChain": "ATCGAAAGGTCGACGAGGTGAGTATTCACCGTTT",
    "classLabel": "Not satisfied"
  },
  {
    "sequenceChain": "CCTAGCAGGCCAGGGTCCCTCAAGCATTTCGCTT",
    "classLabel": "Not satisfied"
  },
  {
    "sequenceChain": "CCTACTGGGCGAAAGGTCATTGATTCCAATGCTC",
    "classLabel": "Satisfied"
  },
  {
    "sequenceChain": "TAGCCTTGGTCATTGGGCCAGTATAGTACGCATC",
    "classLabel": "Not satisfied"
  }
]
